Provenance of the data: paper PMC9693123

Tested on: Tel12 (DNA, G4) TAGGGTTAGGGT
test-details: UV-vis titration, HypSpec2014 fit
measurement-setup: KCl 0.1 M; NaCacodylate 2.5 mM, pH 7.0, 25 °C
Recorded LogK for the following compounds

{"smiles-repr": "COc1ccc2c(CCc3ccncc3)c3[n+](cc2c1OC)CCc1cc2c(cc1-3)OCO2", "LogK": 6.1}
{"smiles-repr": "COc1ccc2c(CCCCCc3ccncc3)c3[n+](cc2c1OC)CCc1cc2c(cc1-3)OCO2", "LogK": 7.2}
{"smiles-repr": "COc1ccc2c(CCCCc3ccncc3)c3[n+](cc2c1OC)CCc1cc2c(cc1-3)OCO2", "LogK": 7.0}
{"smiles-repr": "COc1ccc2c(CCCc3ccncc3)c3[n+](cc2c1OC)CCc1cc2c(cc1-3)OCO2", "LogK": 6.6}
